- Test system: 885512-296-R-J2-PDC complex spheroid growth, % test/control
- test: Anticancer human tumor 885512-296-R-J2-PDC patient-derived breast carcinoma cell line growth inhibition [AhR]
- cond: second compound 10 µM; first compound 0.316 µM; stronger effect = lower value
Rule: measured viability, T/C below 40% gets condition met; anything equal to or greater than 40% gets condition not met.

{"molecule": "Nc1ccccc1NC(=O)c1ccc(CNC(=O)OCc2cccnc2)cc1 + Cc1cncc(-c2nc(NCCc3c[nH]c4ccccc34)c3ncn(C(C)C)c3n2)c1", "assigned label": "condition met"}
{"molecule": "NS(=O)(=O)OCC1CC(n2ccc3c(NC4CCc5ccccc54)ncnc32)CC1O (stereo not given) + Cc1ccccc1N=Nc1ccc(NC(=O)c2ccnn2C)c(C)c1", "assigned label": "condition met"}
{"molecule": "COc1ccc([C@@H](O)c2cc(-c3ncnc4cc(N5CCOCC5)ccc34)c(F)cc2Cl)nn1 + Cc1ccccc1N=Nc1ccc(NC(=O)c2ccnn2C)c(C)c1", "assigned label": "condition not met"}
{"molecule": "Nc1ccn(C2OC(CO)C(O)C2(F)F)c(=O)n1 (stereo not given) + Cc1cncc(-c2nc(NCCc3c[nH]c4ccccc34)c3ncn(C(C)C)c3n2)c1", "assigned label": "condition met"}
{"molecule": "COc1ccc([C@@H](O)c2cc(-c3ncnc4cc(N5CCOCC5)ccc34)c(F)cc2Cl)nn1 + CC(CO)NC(=O)c1cc(-c2ccc(Cl)cc2)nn(-c2cnn(C)c2)c1=O", "assigned label": "condition not met"}
{"molecule": "CC1COCCN1c1cc(C2(S(C)(=N)=O)CC2)nc(-c2ccnc3[nH]ccc23)n1 (stereo not given) + CC(CO)NC(=O)c1cc(-c2ccc(Cl)cc2)nn(-c2cnn(C)c2)c1=O", "assigned label": "condition not met"}
{"molecule": "COc1ccc([C@@H](O)c2cc(-c3ncnc4cc(N5CCOCC5)ccc34)c(F)cc2Cl)nn1 + Cc1cncc(-c2nc(NCCc3c[nH]c4ccccc34)c3ncn(C(C)C)c3n2)c1", "assigned label": "condition met"}
{"molecule": "Nc1ncn(C2CC(O)C(CO)O2)c(=O)n1 (stereo not given) + Cc1cncc(-c2nc(NCCc3c[nH]c4ccccc34)c3ncn(C(C)C)c3n2)c1", "assigned label": "condition met"}
{"molecule": "O=C(c1cc(Cc2n[nH]c(=O)c3ccccc23)ccc1F)N1CCN(C(=O)C2CC2)CC1 + CC(CO)NC(=O)c1cc(-c2ccc(Cl)cc2)nn(-c2cnn(C)c2)c1=O", "assigned label": "condition not met"}
{"molecule": "COc1cc(Nc2ncc3c(n2)-c2ccc(Cl)cc2C(c2c(F)cccc2OC)=NC3)ccc1C(=O)O + Cc1cncc(-c2nc(NCCc3c[nH]c4ccccc34)c3ncn(C(C)C)c3n2)c1", "assigned label": "condition met"}
{"molecule": "Nc1ccccc1NC(=O)c1ccc(CNC(=O)OCc2cccnc2)cc1 + Cc1ccccc1N=Nc1ccc(NC(=O)c2ccnn2C)c(C)c1", "assigned label": "condition not met"}
{"molecule": "CC1COCCN1c1cc(C2(S(C)(=N)=O)CC2)nc(-c2ccnc3[nH]ccc23)n1 (stereo not given) + Cc1cncc(-c2nc(NCCc3c[nH]c4ccccc34)c3ncn(C(C)C)c3n2)c1", "assigned label": "condition met"}
{"molecule": "CC1(C)CCC(CN2CCN(c3ccc(C(=O)NS(=O)(=O)c4ccc(NCC5CCOCC5)c([N+](=O)[O-])c4)c(Oc4cnc5[nH]ccc5c4)c3)CC2)=C(c2ccc(Cl)cc2)C1 + CC(CO)NC(=O)c1cc(-c2ccc(Cl)cc2)nn(-c2cnn(C)c2)c1=O", "assigned label": "condition not met"}
{"molecule": "CC(C)c1c(-c2ccccc2)nc2c(C#N)c[nH]n2c1=O + CC(CO)NC(=O)c1cc(-c2ccc(Cl)cc2)nn(-c2cnn(C)c2)c1=O", "assigned label": "condition not met"}

* * *

- Test system: 885512-296-R-J2-PDC complex spheroid growth, % test/control
- test: Anticancer human tumor 885512-296-R-J2-PDC cell line growth inhibition [AhR];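 note: spheroids exposed to compounds for seven days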
- cond: second compound 0.1 µM; first compound 0.000316 µM; stronger effect = lower value
The following compounds are shown together with reported viability, T/C values.

{"compound": "Cn1ncnc1C1c2n[nH]c(=O)c3cc(F)cc(c23)NC1c1ccc(F)cc1 (stereo unspecified) + CC(CO)NC(=O)c1cc(-c2ccc(Cl)cc2)nn(-c2cnn(C)c2)c1=O", "target desc": "885512-296-R-J2-PDC complex spheroid growth, % test/control", "viability, T/C / %": 107}
{"compound": "Cn1ncnc1C1c2n[nH]c(=O)c3cc(F)cc(c23)NC1c1ccc(F)cc1 (stereo unspecified) + Cc1cncc(-c2nc(NCCc3c[nH]c4ccccc34)c3ncn(C(C)C)c3n2)c1", "target desc": "885512-296-R-J2-PDC complex spheroid growth, % test/control", "viability, T/C / %": 116}
{"compound": "CC[C@@]1(O)C(=O)OCc2c1cc1n(c2=O)Cc2cc3c(CN(C)C)c(O)ccc3nc2-1 + Cc1cncc(-c2nc(NCCc3c[nH]c4ccccc34)c3ncn(C(C)C)c3n2)c1", "target desc": "885512-296-R-J2-PDC complex spheroid growth, % test/control", "viability, T/C / %": 87.8}
{"compound": "CC[C@@]1(O)C(=O)OCc2c1cc1n(c2=O)Cc2cc3c(CN(C)C)c(O)ccc3nc2-1 + CC(CO)NC(=O)c1cc(-c2ccc(Cl)cc2)nn(-c2cnn(C)c2)c1=O", "target desc": "885512-296-R-J2-PDC complex spheroid growth, % test/control", "viability, T/C / %": 104}
{"compound": "Cn1ncnc1C1c2n[nH]c(=O)c3cc(F)cc(c23)NC1c1ccc(F)cc1 (stereo unspecified) + Cc1ccccc1N=Nc1ccc(NC(=O)c2ccnn2C)c(C)c1", "target desc": "885512-296-R-J2-PDC complex spheroid growth, % test/control", "viability, T/C / %": 85.6}
{"compound": "CC[C@@]1(O)C(=O)OCc2c1cc1n(c2=O)Cc2cc3c(CN(C)C)c(O)ccc3nc2-1 + Cc1ccccc1N=Nc1ccc(NC(=O)c2ccnn2C)c(C)c1", "target desc": "885512-296-R-J2-PDC complex spheroid growth, % test/control", "viability, T/C / %": 109}

* * *

- System: 885512-296-R-J2-PDC complex spheroid growth, % test/control
- test: Anticancer human tumor 885512-296-R-J2-PDC cell line growth inhibition [AhR]; active = viability on the fitted dose curve at most 10% of control; inactive = the rest;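 note: spheroids exposed to compounds for seven days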
- cond: second compound 10 µM; first compound 0.1 µM
Possible outcomes: 1 = active, 0 = inactive

{"compound": "COc1cccc2c1C(=O)c1c(O)c3c(c(O)c1C2=O)CC(O)(C(=O)CO)CC3OC1CC(N)C(O)C(C)O1 (stereo unspecified) + Cc1cncc(-c2nc(NCCc3c[nH]c4ccccc34)c3ncn(C(C)C)c3n2)c1", "assigned label": 1}
{"compound": "Nc1ncn(C2CC(O)C(CO)O2)c(=O)n1 (stereo unspecified) + CC(CO)NC(=O)c1cc(-c2ccc(Cl)cc2)nn(-c2cnn(C)c2)c1=O", "assigned label": 0}
{"compound": "O=C(C=Cc1cccc(S(=O)(=O)Nc2ccccc2)c1)NO + Cc1ccccc1N=Nc1ccc(NC(=O)c2ccnn2C)c(C)c1", "assigned label": 0}
{"compound": "CC(C)c1c(-c2ccccc2)nc2c(C#N)c[nH]n2c1=O + CC(CO)NC(=O)c1cc(-c2ccc(Cl)cc2)nn(-c2cnn(C)c2)c1=O", "assigned label": 0}
{"compound": "COc1cc(Nc2ncc3c(n2)-c2ccc(Cl)cc2C(c2c(F)cccc2OC)=NC3)ccc1C(=O)O + CC(CO)NC(=O)c1cc(-c2ccc(Cl)cc2)nn(-c2cnn(C)c2)c1=O", "assigned label": 0}
{"compound": "COc1cc(C2c3cc4c(cc3C(OC3OC5COC(C)OC5C(O)C3O)C3COC(=O)C23)OCO4)cc(OC)c1O (stereo unspecified) + Cc1ccccc1N=Nc1ccc(NC(=O)c2ccnn2C)c(C)c1", "assigned label": 0}

* * *

The following compounds are shown together with reported viability, T/C values.
- System: 885512-296-R-J2-PDC complex spheroid growth, % test/control
- test: Anticancer human tumor 885512-296-R-J2-PDC cell line growth inhibition [AhR];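 note: spheroids exposed to compounds for seven days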
- cond: second compound 10 µM; first compound 0.1 µM; stronger effect = lower value
quantity kind: viability, T/C (%)

{"compound": "CC[C@@]1(O)C(=O)OCc2c1cc1n(c2=O)Cc2cc3c(CN(C)C)c(O)ccc3nc2-1 + Cc1ccccc1N=Nc1ccc(NC(=O)c2ccnn2C)c(C)c1", "target desc": "885512-296-R-J2-PDC complex spheroid growth, % test/control", "units label": "%", "result number": 7.45}
{"compound": "COc1cccc2c1C(=O)c1c(O)c3c(c(O)c1C2=O)CC(O)(C(=O)CO)CC3OC1CC(N)C(O)C(C)O1 (stereo not given) + CC(CO)NC(=O)c1cc(-c2ccc(Cl)cc2)nn(-c2cnn(C)c2)c1=O", "target desc": "885512-296-R-J2-PDC complex spheroid growth, % test/control", "units label": "%", "result number": 19.3}
{"compound": "CC1(C)CCC(CN2CCN(c3ccc(C(=O)NS(=O)(=O)c4ccc(NCC5CCOCC5)c([N+](=O)[O-])c4)c(Oc4cnc5[nH]ccc5c4)c3)CC2)=C(c2ccc(Cl)cc2)C1 + CC(CO)NC(=O)c1cc(-c2ccc(Cl)cc2)nn(-c2cnn(C)c2)c1=O", "target desc": "885512-296-R-J2-PDC complex spheroid growth, % test/control", "units label": "%", "result number": 99.4}
{"compound": "O=C(c1cc(Cc2n[nH]c(=O)c3ccccc23)ccc1F)N1CCN(C(=O)C2CC2)CC1 + CC(CO)NC(=O)c1cc(-c2ccc(Cl)cc2)nn(-c2cnn(C)c2)c1=O", "target desc": "885512-296-R-J2-PDC complex spheroid growth, % test/control", "units label": "%", "result number": 96}
{"compound": "CC1(C)CCC(CN2CCN(c3ccc(C(=O)NS(=O)(=O)c4ccc(NCC5CCOCC5)c([N+](=O)[O-])c4)c(Oc4cnc5[nH]ccc5c4)c3)CC2)=C(c2ccc(Cl)cc2)C1 + Cc1cncc(-c2nc(NCCc3c[nH]c4ccccc34)c3ncn(C(C)C)c3n2)c1", "target desc": "885512-296-R-J2-PDC complex spheroid growth, % test/control", "units label": "%", "result number": 13.7}
